# Subject Of Test: T1, P47 peptide on HLA-A*02:01 (human)
# T1 peptide: RISDIRLFIV
# Assay Details: cytokine release
Parameter Measured: binding result

binder="SIG35α / TRBV27 Cl.1574 (TCR) alpha TRAV12-2 J35 CDR3: CAVSIGFGNVL beta TRBV27 TRBJ1-1 CDR3: CASSPWERINTEAFF" result="no recognition"
binder="SIG35α / TRBV27 Cl.1593 (TCR) alpha TRAV12-2 J35 CDR3: CAVSIGFGNVL beta TRBV27 TRBJ1-5 CDR3: CASGNNQPQHF" result="no recognition"
binder="SIG35α / TRBV27 Cl.794 (TCR) alpha TRAV12-2 J35 CDR3: CAVSIGFGNVL beta TRBV27 TRBJ1-2 CDR3: CASSLLGDYGYTF" result="no recognition"
binder="SIG35α / TRBV27 Cl.1606 (TCR) alpha TRAV12-2 J35 CDR3: CAVSIGFGNVL beta TRBV27 TRBJ2-7 CDR3: CASSLLGSYEQYF" result="no recognition"
binder="SIG35α / TRBV27 Cl.758 (TCR) alpha TRAV12-2 J35 CDR3: CAVSIGFGNVL beta TRBV27 TRBJ2-2 CDR3: CASSPRLAGDGELFF" result="no recognition"
binder="SIG35α / TRBV27 Cl.523 (TCR) alpha TRAV12-2 J35 CDR3: CAVSIGFGNVL beta TRBV27 TRBJ2-7 CDR3: CASGSYEQYF" result="no recognition"
binder="SIG35α / TRBV27 Cl.1599 (TCR) alpha TRAV12-2 J35 CDR3: CAVSIGFGNVL beta TRBV27 TRBJ1-1 CDR3: CASSFLGAMAEAFF" result="no recognition"
